B1: TPR t1 (parent)
chain: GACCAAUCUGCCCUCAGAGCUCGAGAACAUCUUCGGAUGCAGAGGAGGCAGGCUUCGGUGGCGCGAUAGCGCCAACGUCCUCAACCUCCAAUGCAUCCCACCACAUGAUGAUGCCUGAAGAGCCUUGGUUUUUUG

Variants of: B1
Assay Explanation: polymerase ribozyme fitness, log enrichment relative to wild type (log ratio); higher = more active; in vitro selection for triplet polymerase activity
Reported Endpoint: polymerase ribozyme fitness (log ratio)

1. U14A C49U G60A A100U U106A; -3.83
2. G10C C11G A103U; -3.76
3. G35C C98A A103C C123U; -5.49
4. C12A A84U U130A; -1.77
5. C40U C56G G63C; -3.69
6. A41U A66G G71C U78A; -5.05
7. C20A U32A C70U G93C; -6.8
8. G47A C94A; -1.89
9. G61U C97A C123A; -4.17
10. C56G G60U; -1.44
11. C12U G47A C102A; -2.63
12. C8G C89A A105U; -3.66
13. A43U G45C C49U G120A; -3.19
14. G45A U54A G61C; -0.932
15. U7C C12A; -0.242
16. G17U G63U C73U; -4.41
17. G113C C115U; -3.35
18. A43C U112A G113C; -1.28
